system: LOX IMVI melanoma; assay: NCI tumour cell line growth inhibition, 384-well format
Some molecules, each annotated with its measured TGI.

Known results for molecules:
COc1cc([C@@H]2c3cc4c(cc3[C@@H](OC3OC5CO[C@@H](c6cccs6)OC5C(O)C3O)[C@H]3COC(=O)[C@H]23)OCO4)cc(OC)c1O (some centres undefined) :: 1.57 µM
CC(C)Oc1ccc(-c2nn([C@@H](C)c3oc4ccc(F)cc4c(=O)c3-c3cccc(F)c3)c3ncnc(N)c23)cc1F :: > 100 µM
CC(C)N(CCCNC(=O)Nc1ccc(C(C)(C)C)cc1)C[C@H]1O[C@@H](n2ccc3c(N)ncnc32)[C@H](O)[C@@H]1O :: > 100 µM

# ---- query molecule ----
# value lookup — system LOX IMVI melanoma, readout TGI, item [2H]c1nc(C)nc([2H])c1-c1cc(NC[C@@H](C)c2cccc3c(C(=O)NC)ccnc23)ncn1 > 100 µM
